assay: Equilibrium solubility in organic solvents; format: physicochemical; settings: organic solvent or mixture, thermodynamic from solid; Acetone, RT
OUTCOME_MEASURE: solubility at 24 h

q: Return the recorded solubility at 24 h value; entry: CC(C)N(C[C@H]1O[C@@H](n2cnc3c(N)ncnc32)[C@H](O)[C@@H]1O)[C@H]1C[C@@H](CCc2nc3cc(C(C)(C)C)ccc3[nH]2)C1 [Form B, trihydrate]
a: 23.9 mg/mL

---

Test: Equilibrium solubility in aqueous media
Format: physicochemical
Settings: 50 mM sodium citrate buffer, 25 °C, pH 6, aqueous buffer, thermodynamic from solid, 50 mM sodium citrate, pH (initial) 6.0, RT, 24 h
Experimental: Approximately 10 mg of Form B was weighed into a 1-ml glass vial followed by addition of 0.5 ml relevant media. Each sample was continuously stirred using a magnetic stir bar at 25° C. for 24 h. The suspension was then filtered using a nylon membrane with a pore diameter of 0.22 μm. The filtrates were diluted for HPLC analysis and final pH was measured. […] The solubilities of Form B in water and five different pH values at 25° C. were determined by HPLC after 24 h equilibration. […]
OUTCOME_MEASURE: solubility at 24 h (µg/mL)
Give just the numeric value; µg/mL need not be written.

q: Supply measured solubility at 24 h of CC(C)N(C[C@H]1O[C@@H](n2cnc3c(N)ncnc32)[C@H](O)[C@@H]1O)[C@H]1C[C@@H](CCc2nc3cc(C(C)(C)C)ccc3[nH]2)C1 [Form B, trihydrate] in your reply.
a: 80
